# TEST_SYSTEM: UniProt:P10636
# MEASUREMENT_DESCRIPTION: MCE Phenols Library screening, tau biosensor cell seeding assay (AvZ)
# Type: cell-based
# STUDY_CONDITIONS: Z score, replicate 2
READOUT_TYPE: Z Repl 2
Answers are plain numbers.

1) COc1cc(C[C@@H](CO)[C@H](CO)Cc2ccc(O)c(OC)c2)ccc1O [Secoisolariciresinol]: 0.426
2) O=c1c(O[C@@H]2O[C@H](CO)[C@@H](O)[C@H](O)[C@H]2O)c(-c2ccc(O)c(O)c2)oc2cc(O)cc(O)c12: -0.844
3) NCCc1ccc(O)cc1: 0.385
4) COc1cc(/C=C/C(=O)OCC2OC(OC3(CO)OC(CO)C(O)C3OC(=O)/C=C/c3cc(OC)c(O)c(OC)c3)C(O)C(O)C2O)cc(OC)c1O (centres unmarked) [(E)-3',6-Disinapoylsucrose]: -0.662
5) CC1(C)C=Cc2c(ccc3c2OC[C@@H](c2ccc(O)cc2O)C3)O1: 0.805

Batch request: Z Repl 2 per item, same order as input.
1. CC(C)=CCc1c(-c2ccc(O)cc2O)oc2c([C@H]3C=C(C)C[C@@H](c4ccc(O)cc4O)[C@@H]3C(=O)c3ccc(O)cc3O)c(O)cc(O)c2c1=O
2. COc1cc(/C=C/c2cc(O)cc(O)c2)ccc1O
3. COc1cc(-c2oc3cc(O)cc(O)c3c(=O)c2O)ccc1O

// result
1: 0.629; 2: 0.571; 3: -0.648

* * *

Record form. Attribute: raw data 1. Fill in for each entry.
# TEST_SYSTEM: UniProtKB P10636
# MEASUREMENT_DESCRIPTION: MCE Phenols Library screening, tau biosensor cell seeding assay (AvZ)
# Type: cell-based
# STUDY_CONDITIONS: puncta, replicate 1
Answers are plain numbers.

Example results:
1. O=C(O)c1ccc(O)cc1 [4-Hydroxybenzoic acid]: 22475.3
2. O=c1cc(-c2ccccc2)oc2cccc(O)c12 [5-Hydroxyflavone]: 9800.36

// switching to the query compound
// query Let me know recorded raw data 1 for C=C(C)[C@H](CC=C(C)C)Cc1c(O)cc(O)c2c1O[C@H](c1ccccc1O)CC2=O , thanks.
// result 28541

* * *

# TEST_SYSTEM: UniProtKB P10636
# MEASUREMENT_DESCRIPTION: MCE Phenols Library screening, tau biosensor cell seeding assay (AvZ)
# Type: cell-based
# STUDY_CONDITIONS: Z score, replicate 1
So basically: Z repl 1 at 0.05 or higher? That is t. Lower than 0.05? That is f.

// query Exam item: decide whether the reported Z repl 1 for O=C(O[C@@H]1[C@@H](O)[C@H](Oc2cc(O)c(C(=O)CCc3ccccc3)c(O)c2)O[C@@H]2COC(=O)c3cc(O)c(O)c(O)c3-c3c(cc(O)c(O)c3O)C(=O)O[C@@H]12)c1cc(O)c(O)c(O)c1 is at least 0.05.
// result f

// query Exam item: decide whether the reported Z repl 1 for COc1cc(CCN)ccc1O is at least 0.05.
// result t

// query Exam item: decide whether the reported Z repl 1 for CC(=O)O[C@H]1C(=O)c2c(O)cc(O)cc2O[C@@H]1c1ccccc1 [Pinobanksin 3-acetate] is at least 0.05.
// result t

// query Exam item: decide whether the reported Z repl 1 for COc1cc2ccc(=O)oc2c(O)c1O is at least 0.05.
// result f

// query Exam item: decide whether the reported Z repl 1 for O.O.O=c1c(O)c(-c2ccc(O)c(O)c2)oc2cc(O)cc(O)c12 [Quercetin (dihydrate)] is at least 0.05.
// result f

* * *

# TEST_SYSTEM: tau (Homo sapiens)
# MEASUREMENT_DESCRIPTION: MCE Phenols Library screening, tau biosensor cell seeding assay (AvZ)
# Type: cell-based
# STUDY_CONDITIONS: Z score, replicate 1
READOUT_TYPE: Z repl 1
One number for each entry.

1. COc1ccc(-c2cc(=O)c3c(O)cc(O)cc3o2)cc1: -0.027
2. COc1cc(/C=C/C(=O)O[C@H]2[C@H](O)C[C@](O)(C(=O)O)C[C@H]2O)ccc1O: -1.622
3. COc1cc(-c2cc(=O)c3c(O)c(OC)c(O)cc3o2)ccc1O: 1.473
4. O=C(/C=C/c1ccc(O)cc1)C1=C(O)C(O)([C@@H]2O[C@H](CO)[C@@H](O)[C@H](O)[C@H]2O)C(O)=C([C@@H]2O[C@H](CO)[C@@H](O)[C@H](O)[C@H]2O)C1=O (some centres unmarked) [Hydroxysafflor yellow A]: -0.826
5. Oc1ccc2c(c1)OC[C@H]1c3cc4c(cc3O[C@@H]21)OCO4 [(-?)?-Maackiain]: 0.975

Batch request: Z repl 1 per item, same order as input.
1. Oc1cc(O)cc(/C=C/c2ccc(O)cc2O)c1
2. O=c1cc(-c2ccccc2)oc2c(O)c(O)ccc12 [7,8-Dihydroxyflavone]
3. CC(=O)NCCc1c[nH]c2ccc(O)cc12 [N-Acetyl-5-hydroxytryptamine]
4. COc1cc(-c2coc3cc4c(c(O)c3c2=O)OCO4)cc(O)c1OC
5. C[C@@H]1O[C@@H](OC[C@H]2O[C@@H](Oc3c(-c4ccc(O)cc4)oc4cc(O)cc(O)c4c3=O)[C@H](O[C@@H]3O[C@@H](C)[C@H](O)[C@@H](O)[C@H]3O)[C@@H](O)[C@H]2O)[C@H](O)[C@H](O)[C@H]1O
6. CCc1cccc(C)c1O

// result
[0.048, 1.412, 0.285, 0.855, 0.781, 0.346]

* * *

# TEST_SYSTEM: tau (Homo sapiens)
# MEASUREMENT_DESCRIPTION: MCE Phenols Library screening, tau biosensor cell seeding assay (AvZ)
# Assay type: cell-based
# STUDY_CONDITIONS: puncta, replicate 1
So basically: raw data 1 at 20000 or higher? That is 1.0. Lower than 20000? That is 0.0.

1) O=C(/C=C/c1ccc(O)c(O)c1)O[C@H]1[C@H](O)C[C@](O)(C(=O)O)C[C@H]1O: 1.0
2) COc1ccc(-c2cc(=O)c3c(O)c(OC)c(O)cc3o2)cc1: 1.0
3) O=C1CC(C(=O)O)c2c1oc(=O)c1cc(O)c(O)c(O)c21 (centres unmarked): 0.0
4) O=C(O)CNC(=O)c1cccc(O)c1 [3-Hydroxyhippuric acid]: 1.0

# input for lookup
// query Exam item: decide whether the reported raw data 1 for O=C(/C=C/c1ccc(O)c(O)c1)O[C@@H]1C[C@](O)(C(=O)O)C[C@@H](OC(=O)/C=C/c2ccc(O)c(O)c2)[C@H]1O is at least 20000.
// result 1.0

* * *

# TEST_SYSTEM: tau (Homo sapiens, UniProt P10636)
# Sequence (P10636 623-695 limits assumed): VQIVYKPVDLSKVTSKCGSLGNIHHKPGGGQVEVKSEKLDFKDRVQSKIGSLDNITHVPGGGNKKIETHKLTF
# MEASUREMENT_DESCRIPTION: MCE Phenols Library screening, tau biosensor cell seeding assay (AvZ)
# Assay type: cell-based
# STUDY_CONDITIONS: Z score, replicate 1
Record form. Attribute: Z repl 1. Fill in for each entry.
Answers are plain numbers.

Example results:
1) O=c1c(O)c(-c2ccc(O)cc2)oc2cc(O)cc(O)c12 [Kaempferol]: -0.004
2) COc1ccc(O)c(C(=O)O)c1 [5-Methoxysalicylic acid]: -0.389
3) COc1cc(C(=O)OCCCCNC(=N)N)cc(OC)c1O [Leonurine]: 1.449

Batch request: Z repl 1 per item, same order as input.
1. CC(=O)c1c(C)cc2cccc(O)c2c1O [Nepodin]
2. O=C(O)c1cc(O)c2c(c1)[C@H]([C@H]1c3cccc(O)c3C(=O)c3c(O)cc(C(=O)O)cc31)c1cccc(O)c1C2=O [Sennidin B]

// result
1. -0.364
2. 0.553

* * *

# TEST_SYSTEM: tau (Homo sapiens, UniProt P10636)
# MEASUREMENT_DESCRIPTION: MCE Phenols Library screening, tau biosensor cell seeding assay (AvZ)
# Assay type: cell-based
# STUDY_CONDITIONS: Z score, replicate 1
READOUT_TYPE: Z repl 1

1) COc1c(O)cc(O)c2c(=O)cc(-c3ccccc3)oc12: 0.851

Batch request: Z repl 1 per item, same order as input.
1. C[C@H]1CCCC(=O)CCCCCc2cc(O)cc(O)c2C(=O)O1
2. O=C(O)[C@H]1O[C@@H](Oc2c(-c3ccc(O)cc3)oc3cc(O)cc(O)c3c2=O)[C@H](O)[C@@H](O)[C@@H]1O [Kaempferol 3-O-?-D-glucuronide]
3. Cc1cc(=O)c2c(O)cc(O)cc2o1
4. O=C1c2ccccc2C(=O)c2c(O)c(O)cc(O)c21
5. O=C(/C=C/c1ccc(O)c2c1[C@H](C(=O)O)[C@@H](c1ccc(O)c(O)c1)O2)O[C@H](Cc1ccc(O)c(O)c1)C(=O)O

// result
1. 0.089
2. 0.499
3. -0.363
4. 0.055
5. -1.337
